Provide the recorded 90% neutralization VR1814, ARPE for the entries that follow.
Target: hCMV UL130 + UL131A (HEK293T co-transfectant) (hCMV, UniProt P16772 1-214)
Sequence (P16772 whole entry): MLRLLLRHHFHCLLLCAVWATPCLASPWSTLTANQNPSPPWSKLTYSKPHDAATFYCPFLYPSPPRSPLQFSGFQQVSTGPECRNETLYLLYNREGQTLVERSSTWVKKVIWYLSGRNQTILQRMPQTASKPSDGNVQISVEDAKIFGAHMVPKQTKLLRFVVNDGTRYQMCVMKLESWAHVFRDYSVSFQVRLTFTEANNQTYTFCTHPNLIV
Assay: cell-based or functional assay
Numbers only, in µg/mL.

Field: 90% neutralization VR1814, ARPE. Fill in for each record below.
1. 10F7 (antibody, V domains shown, human IgG; also called 10F7-biotin) VH: EVQLVESGGGLVQPGRSLRLSCTASGFTFGDYAMSWFRQAPGKGLEWVGFIRSKAYGGTTEYAASVKGRFTISRDDSKSIAYLQMNSLKTEDTAVYYCTRASSLLWLLNPQPNFDYWGQGTLVTVSS VL: SYVLTQPPSVSVAPGQTARITCGGNNIGSNNVHWYQQKPGQAPVLVVYDDSDRPSGIPERFSGSNSGNTATLTISRVEAGDEADYYCQVWDSSSDHPVFGGGTKLTVL
2. 10P3 (antibody, V domains shown, human IgG) VH: EVQLVESGGGLVRPGGSLRLSCAASGFTFHNYRMNWVRQAPGKGLEWVANIKQDGSEKSYVDSVRGRFTTSRDNSKNSLYLQINSLRAEDTAVYYCARGEGYTYGVVYSYSAMDVWGQGTTVIVSS VL: SYELTQPPSVSVSPGQTARITCSGNVLPNQYASWYQQKPGQAPVLVIYKDTERPSGIPGRFSGSSSGTTVTLTISGVQAEDEADYYCQSADSSGADYVFGTGTKVTVL
3. 4N10 (antibody, V domains shown, human IgG; also called 4N10-biotin) VH: QVQLVQSGAEVKKPGSSVRVSCKASGGTFSSYVIIWVRQAPGQGLEWMGGVIPIFDTVNYAQKFQGRVTITADESTSTAYMELSSLKSEDTAVYYCARGILAYCGGDCYNTPYGMDVWGQGTTVTVSS VL: DIQMTQSPSILSASVGDRVTITCRASQSISSWLAWYQQKPGKAPKLLIYKASSLEIGVPSRISGSGSGTEFTLTISSLQPDDFATYYCQQYNSSWTFGQGTKVEIK

Result:
[0.002, 0.0025, 0.02]

Field: 90% neutralization VR1814, ARPE. Fill in for each record below.
1. 4I22 (antibody, human IgG1, V domains shown, fully human IgG1 with unaltered Fc; also called 4I22-biotin; 4122) VH: QVQLVESGGGVVQPGRSLRLSCVASGFTFSSYAMHWVRQAPGKGLEWVAVISYDGDNKFYADSVKGRFRISRDTSKNTLYLEMNSLRAADTAIYYCAREELVGLMPPYYNYGLDVWGQGTTVTVSS VL: QSVLTQPPSVSAAPGQKVTISCSGSNSNIGNNYVSWYQQLPGRAPKLLIYDNDHRPSGIPDRFSGSKSGTSATLVITGLQTGDEADYYCETWDTSLSAAVVFGGGTKLTVL
2. 8L13 (antibody, V domains shown, human IgG) VH: QVQLLESGGGVVQPGRSLRLSCAASGFTFSNYGMHWVRQAPGKGLEWVAVIWNDGSKKYYAESVKGRFTISRDNSKNTVYLQMNSLRAEDTAVYYCARDEGVQMVFAMPDYGMDVWGQGTTVTVSS VL: SYELTQPPSVSVSPGQTASITCSGDKLGDKFACWYQQRPGQSPILVIYQDSKRPSGIPERFSGSNSGNTATLTIRGTQAMDEADYYCQAWDSSTAHYVFGTGTKVTVL

Result:
1. 0.0015
2. 0.001

Origin of measurements: patent US20170296650A1
